Data provenance is the RNAGym collection of RNA variant scans (doi:10.7554/elife.90254).

B1: LINE1-mini (parent)
chain: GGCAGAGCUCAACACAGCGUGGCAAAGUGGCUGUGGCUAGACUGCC

# Variants of: B1
# assay_remarks: self-cleavage, relative activity (ratio to wild type); higher = more cleavage; in vitro, sequencing; the parent is a self-cleaving ribozyme
Quick rule for you: self-cleavage at 0.2 or higher means Y, lower means N.

> print(dat)
                             input.sequence  label
1  GGCAGAGCUCAACACAGCGUGGCAAAGUGGCUGUAGCCAGACUGCC [G35A U38C]      N
2  GGCAGAGCUCAACACAGCGUGCUAAAGUGGCUGUGGCUAGACUGCC [G22C C23U]      Y

INPUT: Is reported self-cleavage greater than or equal to 0.2 here: GACAGAGCUCAACACAGCGUGGCAAAGUGGCCGUGGCUAGACUGCC [G2A U32C]
OUTPUT: Y

INPUT: Tell me whether self-cleavage is at least 0.2 here: GGCUGAGCUCAACACAGCGUGGCAAAGUGGCUGUGGUUAGACUGCC [A4U C37U]
OUTPUT: N
